B1: Azoarcus group I ribozyme (parent)
chain: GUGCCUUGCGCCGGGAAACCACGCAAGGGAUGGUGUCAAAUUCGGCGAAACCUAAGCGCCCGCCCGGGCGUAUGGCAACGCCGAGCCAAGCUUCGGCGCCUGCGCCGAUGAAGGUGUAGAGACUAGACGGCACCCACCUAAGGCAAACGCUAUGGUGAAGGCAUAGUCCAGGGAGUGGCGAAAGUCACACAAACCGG

Variants of: B1
assay.info: reverse-splicing fitness (ratio to wild type); higher = more active; in vitro selection; Mg2+ level not given
Some variants, each annotated with its measured reverse-splicing fitness.
# respond with the number and nothing more

C82A A111C A120C C150U U176C = 0.0187
C82A A111C A120G A145U C169G U176A = 0.0102

Query: reverse-splicing fitness; subject: C82A A111C A120U A145G C150U C169A U176C
0.00432

Query: reverse-splicing fitness; subject: A120G A145C C150U U176C
0.0938

Query: reverse-splicing fitness; subject: C82U A111C A120C C150A C169G U176A
0.0161

Query: reverse-splicing fitness; subject: C82G A111U A120G A145C C150A C169A
0.00828

Query: reverse-splicing fitness; subject: A111C A120G U176G
0.00629

Query: reverse-splicing fitness; subject: A145U C150U C169A U176A
0.0236

Query: reverse-splicing fitness; subject: C82G A111U C150A C169A
0.0114

Query: reverse-splicing fitness; subject: C82U A111G A120U A145G C150U U176C
0.0134

Query: reverse-splicing fitness; subject: C82U A111G A120G A145U C150G C169G U176C
0.00487

Query: reverse-splicing fitness; subject: C82G C150U C169G
0.0104

Query: reverse-splicing fitness; subject: C82U A111G A120C A145U C150U C169U
0.00989

Query: reverse-splicing fitness; subject: C82A A111U A120C A145U C150G C169G U176C
0.00626

Query: reverse-splicing fitness; subject: C82G A111U A120C A145U C150A C169A
0.0103

Query: reverse-splicing fitness; subject: A145U C169A U176A
0.0255

Query: reverse-splicing fitness; subject: C82G A111G A120C A145G C150A C169A
0.0118

Query: reverse-splicing fitness; subject: C82G A120G A145C C169A U176C
0.0123

Query: reverse-splicing fitness; subject: C82G A111C A120C A145C C150A C169G
0.00859

Query: reverse-splicing fitness; subject: C82G A111U A120G A145U C150A C169G
0.00835

Query: reverse-splicing fitness; subject: A111C A120G A145G C150A U176A
0.0132

Query: reverse-splicing fitness; subject: C82G A111G A120C C150G
0.0105

Reference source: the RNAGym collection of RNA variant scans (doi:10.1093/molbev/msab373)
